Assay: In vitro microsomal stability, human
Assay type: in vitro ADME
Conditions: human, liver microsomes, human liver microsomes with NADPH
Use 10 min as the dividing line for half-life, with the line itself on the t side and lower values as f.

These recorded examples may help you get a feel for the data.
{"columns": ["compound", "group-label"],
 "data": [
  ["CC(C)(C)C[C@H]1N[C@@H](C(=O)NCCC(C)(O)CO)[C@H](c2cccc(Cl)c2)[C@@]12C(=O)Nc1cc(Cl)c(F)cc12 (some centres unmarked)", "t"],
  ["CC(C)(C)C[C@H]1N[C@@H](C(=O)NCC[C@H](O)CN2CCCC2)[C@H](c2cccc(Cl)c2)[C@@]12C(=O)Nc1cc(Cl)c(F)cc12", "t"],
  ["CC(C)(C)C[C@H]1N[C@@H](C(=O)N[C@H]2CC[C@@H](O)C2)[C@H](c2cccc(Cl)c2F)[C@@]12C(=O)Nc1cc(Cl)ccc12", "f"],
  ["CC(C)(C)C[C@H]1N[C@@H](C(=O)NCC[C@H](O)CNC(C)(C)C)[C@H](c2cccc(Cl)c2)[C@@]12C(=O)Nc1cc(Cl)c(F)cc12", "t"],
  ["CC(C)(C)C[C@H]1N[C@@H](C(=O)NC2CCC(O)CC2)[C@H](c2cccc(Cl)c2F)[C@@]12C(=O)Nc1cc(Cl)ccc12 (some centres unmarked)", "t"]
]}

Query block: Can CC(O)C(O)CCNC(=O)[C@@H]1N[C@H](CC(C)(C)C)[C@]2(C(=O)Nc3cc(Cl)c(F)cc32)[C@H]1c1cccc(Cl)c1 (some centres unmarked) be said to have half-life at or above 10 min?
Result block: t

Query block: What do you have for CC(C)(C)C[C@H]1N[C@@H](C(=O)NCC[C@H](O)CN2CC[C@@H](O)C2)[C@H](c2cccc(Cl)c2)[C@@]12C(=O)Nc1cc(Cl)c(F)cc12 ?
Result block: t

Query block: What do you have for CC(C)(C)C[C@H]1N[C@@H](C(=O)N[C@H]2CC[C@@H](O)C2)[C@H](c2cccc(Cl)c2)[C@@]12C(=O)Nc1cc(Cl)c(F)cc12 ?
Result block: f
